Where do the numbers come from? From ChEMBL document CHEMBL1154879.

target: Phosphatidylinositol 4,5-bisphosphate 3-kinase catalytic subunit beta isoform (Homo sapiens); experiment: Inhibition of recombinant PI3Kbeta assessed as PIP3 product formation by fluorescence polarization assay
Sequence (P42338 whole entry, canonical isoform): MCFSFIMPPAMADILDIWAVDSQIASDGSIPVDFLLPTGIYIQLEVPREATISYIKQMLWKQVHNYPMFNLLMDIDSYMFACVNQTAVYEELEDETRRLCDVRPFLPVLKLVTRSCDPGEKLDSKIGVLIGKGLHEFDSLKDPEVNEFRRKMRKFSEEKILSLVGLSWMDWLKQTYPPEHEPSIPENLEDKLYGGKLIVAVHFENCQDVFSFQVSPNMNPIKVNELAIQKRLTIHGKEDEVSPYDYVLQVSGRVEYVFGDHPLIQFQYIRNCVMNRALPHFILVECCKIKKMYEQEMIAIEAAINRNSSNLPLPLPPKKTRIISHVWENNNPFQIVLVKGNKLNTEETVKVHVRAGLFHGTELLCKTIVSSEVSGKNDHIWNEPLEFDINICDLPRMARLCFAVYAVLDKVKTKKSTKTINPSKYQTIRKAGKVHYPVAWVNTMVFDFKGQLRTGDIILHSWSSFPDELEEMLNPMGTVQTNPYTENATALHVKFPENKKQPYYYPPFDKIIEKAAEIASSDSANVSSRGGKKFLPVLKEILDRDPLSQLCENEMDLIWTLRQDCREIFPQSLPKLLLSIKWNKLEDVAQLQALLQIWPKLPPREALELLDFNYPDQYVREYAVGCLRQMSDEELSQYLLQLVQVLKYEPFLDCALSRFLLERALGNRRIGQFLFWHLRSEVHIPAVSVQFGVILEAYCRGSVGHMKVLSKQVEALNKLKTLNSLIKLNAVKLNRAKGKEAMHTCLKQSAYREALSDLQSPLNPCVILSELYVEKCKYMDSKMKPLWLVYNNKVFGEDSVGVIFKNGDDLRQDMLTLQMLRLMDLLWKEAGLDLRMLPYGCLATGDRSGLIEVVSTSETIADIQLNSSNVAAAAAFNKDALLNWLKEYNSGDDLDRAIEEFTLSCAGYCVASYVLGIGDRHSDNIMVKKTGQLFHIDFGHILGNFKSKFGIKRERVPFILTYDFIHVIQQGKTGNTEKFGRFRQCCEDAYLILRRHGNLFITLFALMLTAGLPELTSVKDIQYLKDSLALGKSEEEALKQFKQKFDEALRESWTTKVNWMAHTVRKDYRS

[
  {
    "RECORD_SMILES": "CS(=O)(=O)N1CCN(Cc2cc3nc(-c4cnc(N)nc4)nc(N4CCOCC4)c3s2)CC1",
    "IC50 [µM]": 0.038
  },
  {
    "RECORD_SMILES": "Cc1nc(N)ncc1-c1nc(N2CCOCC2)c2sc(C(C)(C)O)cc2n1",
    "IC50 [µM]": 0.025
  },
  {
    "RECORD_SMILES": "Cc1nc(N)ncc1-c1nc(N2CCOCC2)c2sc(CN3CCN(S(C)(=O)=O)CC3)cc2n1",
    "IC50 [µM]": 0.0062
  },
  {
    "RECORD_SMILES": "CS(=O)(=O)N1CCN(Cc2cc3nc(-c4ccncc4)nc(N4CCOCC4)c3s2)CC1",
    "IC50 [µM]": 5.4
  },
  {
    "RECORD_SMILES": "CS(=O)(=O)N1CCN(Cc2cc3nc(-c4ccc(N)cc4)nc(N4CCOCC4)c3s2)CC1",
    "IC50 [µM]": 1.4
  },
  {
    "RECORD_SMILES": "CS(=O)(=O)N1CCN(Cc2cc3nc(-c4ccc(N)nc4)nc(N4CCOCC4)c3s2)CC1",
    "IC50 [µM]": 0.06
  },
  {
    "RECORD_SMILES": "CS(=O)(=O)N1CCN(Cc2cc3nc(-c4cccc(O)c4)nc(N4CCOCC4)c3s2)CC1",
    "IC50 [µM]": 0.011
  },
  {
    "RECORD_SMILES": "CS(=O)(=O)N1CCN(Cc2cc3nc(-c4cccnc4)nc(N4CCOCC4)c3s2)CC1",
    "IC50 [µM]": 0.014
  }
]

====

assay: Cmax in nu/nu mouse at 5 mg/kg, po; format: ADME, organism-based; design: dose 5 mg/kg, route oral; conditions: in vivo
RECORDED_ENDPOINT: Cmax (nM)

[
  {
    "RECORD_SMILES": "CC(C)(O)c1cc2nc(-c3cnc(N)nc3)nc(N3CCOCC3)c2s1",
    "RECORDED_ENDPOINT": "Cmax",
    "OBSERVED": 2100
  }
]

====

target: Phosphatidylinositol 4,5-bisphosphate 3-kinase catalytic subunit alpha isoform (Homo sapiens)
pIC50: −log10 of the molar value.

[
  {
    "RECORD_SMILES": "CS(=O)(=O)N1CCN(Cc2cc3nc(-c4cccc(O)c4)nc(N4CCOCC4)c3s2)CC1",
    "pIC50": 8.80
  },
  {
    "RECORD_SMILES": "Cc1nc(N)ncc1-c1nc(N2CCOCC2)c2sc(C(C)(C)O)cc2n1",
    "pIC50": 8.46
  },
  {
    "RECORD_SMILES": "CS(=O)(=O)N1CCN(Cc2cc3nc(-c4cccnc4)nc(N4CCOCC4)c3s2)CC1",
    "pIC50": 7.68
  },
  {
    "RECORD_SMILES": "Cc1nc(N)ncc1-c1nc(N2CCOCC2)c2sc(CN3CCN(S(C)(=O)=O)CC3)cc2n1",
    "pIC50": 8.96
  }
]

====

assay: Oral bioavailability in Beagle dog at 2 mg/kg, po; assay type: ADME, organism-based, Canis lupus familiaris; conditions: in vivo

[
  {
    "RECORD_SMILES": "CC(C)(O)c1cc2nc(-c3cnc(N)nc3)nc(N3CCOCC3)c2s1",
    "UNIT_TEXT": "%",
    "bioavailability": 100
  }
]

====

assay: Half life in nu/nu mouse at 5 mg/kg, po; format: ADME, organism-based; set-up: dose 5 mg/kg, route oral; settings: in vivo

[
  {
    "RECORD_SMILES": "CC(C)(O)c1cc2nc(-c3cnc(N)nc3)nc(N3CCOCC3)c2s1",
    "half-life (h)": 3.6
  },
  {
    "RECORD_SMILES": "Cc1nc(N)ncc1-c1nc(N2CCOCC2)c2sc(C(C)(C)O)cc2n1",
    "half-life (h)": 4.6
  }
]

====

molecular target: Phosphatidylinositol 4,5-bisphosphate 3-kinase catalytic subunit gamma isoform (Homo sapiens)
Sequence (P48736 whole entry, canonical isoform): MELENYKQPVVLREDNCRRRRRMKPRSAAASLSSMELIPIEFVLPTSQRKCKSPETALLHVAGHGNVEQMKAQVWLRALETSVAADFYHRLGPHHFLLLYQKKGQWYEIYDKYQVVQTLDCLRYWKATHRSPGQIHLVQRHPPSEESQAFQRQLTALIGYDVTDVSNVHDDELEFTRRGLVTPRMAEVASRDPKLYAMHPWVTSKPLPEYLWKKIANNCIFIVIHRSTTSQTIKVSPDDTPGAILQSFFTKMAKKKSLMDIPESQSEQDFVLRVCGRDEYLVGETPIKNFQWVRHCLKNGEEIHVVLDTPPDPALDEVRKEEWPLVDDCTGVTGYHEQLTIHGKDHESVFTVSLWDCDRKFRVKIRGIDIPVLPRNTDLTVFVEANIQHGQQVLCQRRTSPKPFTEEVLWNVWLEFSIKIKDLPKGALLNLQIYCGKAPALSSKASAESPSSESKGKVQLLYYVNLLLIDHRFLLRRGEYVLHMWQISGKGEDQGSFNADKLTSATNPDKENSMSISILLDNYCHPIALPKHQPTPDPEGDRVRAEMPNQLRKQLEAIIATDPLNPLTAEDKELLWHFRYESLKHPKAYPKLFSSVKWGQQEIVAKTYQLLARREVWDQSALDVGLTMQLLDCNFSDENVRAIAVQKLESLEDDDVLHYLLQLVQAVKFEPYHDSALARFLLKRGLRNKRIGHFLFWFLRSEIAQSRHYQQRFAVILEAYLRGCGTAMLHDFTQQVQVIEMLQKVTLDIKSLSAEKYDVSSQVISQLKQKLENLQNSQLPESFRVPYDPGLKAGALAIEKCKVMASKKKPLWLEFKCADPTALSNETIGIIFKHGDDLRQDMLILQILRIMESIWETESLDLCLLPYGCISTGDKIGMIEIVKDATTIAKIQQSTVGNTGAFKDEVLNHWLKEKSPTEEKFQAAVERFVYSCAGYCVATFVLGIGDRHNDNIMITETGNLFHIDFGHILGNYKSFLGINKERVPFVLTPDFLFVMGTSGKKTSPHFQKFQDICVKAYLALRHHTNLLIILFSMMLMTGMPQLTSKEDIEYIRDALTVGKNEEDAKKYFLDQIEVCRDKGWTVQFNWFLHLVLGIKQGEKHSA
pIC50: −log10 of the molar value.
RECORDED_ENDPOINT: pIC50

[
  {
    "RECORD_SMILES": "Cc1nc(N)ncc1-c1nc(N2CCOCC2)c2sc(C(C)(C)O)cc2n1",
    "RECORDED_ENDPOINT": "pIC50",
    "OBSERVED": 7.82
  },
  {
    "RECORD_SMILES": "CS(=O)(=O)N1CCN(Cc2cc3nc(-c4cnc(N)nc4)nc(N4CCOCC4)c3s2)CC1",
    "RECORDED_ENDPOINT": "pIC50",
    "OBSERVED": 8.08
  },
  {
    "RECORD_SMILES": "CS(=O)(=O)N1CCN(Cc2cc3nc(-c4ccc(N)cc4)nc(N4CCOCC4)c3s2)CC1",
    "RECORDED_ENDPOINT": "pIC50",
    "OBSERVED": 5.89
  },
  {
    "RECORD_SMILES": "CS(=O)(=O)N1CCN(Cc2cc3nc(-c4cccc(O)c4)nc(N4CCOCC4)c3s2)CC1",
    "RECORDED_ENDPOINT": "pIC50",
    "OBSERVED": 7.70
  },
  {
    "RECORD_SMILES": "CS(=O)(=O)N1CCN(Cc2cc3nc(-c4ccncc4)nc(N4CCOCC4)c3s2)CC1",
    "RECORDED_ENDPOINT": "pIC50",
    "OBSERVED": 5.29
  },
  {
    "RECORD_SMILES": "CS(=O)(=O)N1CCN(Cc2cc3nc(-c4cccnc4)nc(N4CCOCC4)c3s2)CC1",
    "RECORDED_ENDPOINT": "pIC50",
    "OBSERVED": 7.72
  }
]

====

target: Phosphatidylinositol 4,5-bisphosphate 3-kinase catalytic subunit alpha isoform (Homo sapiens, UniProt P42336)
Sequence (P42336 whole entry, canonical isoform): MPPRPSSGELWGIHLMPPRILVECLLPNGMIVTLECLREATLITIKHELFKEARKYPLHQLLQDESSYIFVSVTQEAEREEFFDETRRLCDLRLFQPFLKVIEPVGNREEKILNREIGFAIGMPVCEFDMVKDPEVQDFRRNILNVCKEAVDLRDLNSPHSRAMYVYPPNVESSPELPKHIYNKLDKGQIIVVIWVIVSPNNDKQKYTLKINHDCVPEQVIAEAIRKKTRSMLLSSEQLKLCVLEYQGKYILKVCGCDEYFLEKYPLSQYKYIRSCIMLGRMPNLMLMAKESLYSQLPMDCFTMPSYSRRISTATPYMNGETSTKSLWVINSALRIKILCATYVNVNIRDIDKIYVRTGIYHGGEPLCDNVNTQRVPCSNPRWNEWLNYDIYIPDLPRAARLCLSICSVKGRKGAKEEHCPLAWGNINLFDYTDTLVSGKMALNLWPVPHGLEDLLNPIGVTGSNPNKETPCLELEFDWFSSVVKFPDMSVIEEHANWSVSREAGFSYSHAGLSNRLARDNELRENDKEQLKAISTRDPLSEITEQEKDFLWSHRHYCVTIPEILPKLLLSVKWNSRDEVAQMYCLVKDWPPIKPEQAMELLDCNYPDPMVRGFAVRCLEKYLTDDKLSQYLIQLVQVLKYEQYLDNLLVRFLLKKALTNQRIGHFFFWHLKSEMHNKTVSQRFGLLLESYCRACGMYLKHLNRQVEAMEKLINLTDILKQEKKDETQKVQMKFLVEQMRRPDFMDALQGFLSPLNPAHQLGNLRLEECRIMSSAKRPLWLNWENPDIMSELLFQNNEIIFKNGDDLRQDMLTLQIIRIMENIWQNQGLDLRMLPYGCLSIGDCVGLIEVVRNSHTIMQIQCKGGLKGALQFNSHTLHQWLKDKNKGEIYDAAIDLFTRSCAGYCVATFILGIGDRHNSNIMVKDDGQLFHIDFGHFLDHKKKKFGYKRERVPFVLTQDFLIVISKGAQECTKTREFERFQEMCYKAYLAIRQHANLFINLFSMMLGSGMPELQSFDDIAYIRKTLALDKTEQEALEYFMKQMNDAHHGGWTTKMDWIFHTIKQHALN
Item-by-item account of IC50

[
  {
    "MOLECULE": "OCc1cc2nc(-c3cccc4[nH]ncc34)nc(N3CCOCC3)c2s1",
    "IC50": "29 nM"
  },
  {
    "MOLECULE": "CS(=O)(=O)N1CCN(Cc2cc3nc(-c4cccc(CO)c4)nc(N4CCOCC4)c3s2)CC1",
    "IC50": "1.8 nM"
  },
  {
    "MOLECULE": "CC(=O)NCc1cc2nc(-c3cccc4[nH]ncc34)nc(N3CCOCC3)c2s1",
    "IC50": "16 nM"
  },
  {
    "MOLECULE": "CS(=O)(=O)N1CCN(Cc2cc3nc(-c4ccccc4)nc(N4CCOCC4)c3s2)CC1",
    "IC50": "430 nM"
  },
  {
    "MOLECULE": "CS(=O)(=O)N1CCN(Cc2cc3nc(-c4ccncc4)nc(N4CCOCC4)c3s2)CC1",
    "IC50": "2900 nM"
  },
  {
    "MOLECULE": "CC(C)(O)c1cc2nc(-c3cccc4[nH]ncc34)nc(N3CCOCC3)c2s1",
    "IC50": "22 nM"
  },
  {
    "MOLECULE": "CS(=O)(=O)N1CCN(Cc2cc3nc(-c4ccc(N)nc4)nc(N4CCOCC4)c3s2)CC1",
    "IC50": "5.5 nM"
  },
  {
    "MOLECULE": "CC(O)c1cc2nc(-c3cccc4[nH]ncc34)nc(N3CCOCC3)c2s1 (centres undefined)",
    "IC50": "28 nM"
  },
  {
    "MOLECULE": "CS(=O)(=O)N1CCN(Cc2cc3nc(-c4ccc(N)cc4)nc(N4CCOCC4)c3s2)CC1",
    "IC50": "240 nM"
  }
]

====

experiment: Protein binding in mouse plasma; format: ADME, cell-free; details: read-out: PPB (converted)
This section presents compounds with their documented fraction unbound values.
RECORDED_ENDPOINT: fraction unbound

[
  {
    "RECORD_SMILES": "Cc1nc(N)ncc1-c1nc(N2CCOCC2)c2sc(C(C)(C)O)cc2n1",
    "OBSERVED": 0.27
  },
  {
    "RECORD_SMILES": "CC(C)(O)c1cc2nc(-c3cnc(N)nc3)nc(N3CCOCC3)c2s1",
    "OBSERVED": 0.36
  }
]

====

experiment: Oral bioavailability in nu/nu mouse at 5 mg/kg, po; assay type: ADME, organism-based; conditions: in vivo
RECORDED_ENDPOINT: bioavailability (%)

[
  {
    "RECORD_SMILES": "CC(C)(O)c1cc2nc(-c3cnc(N)nc3)nc(N3CCOCC3)c2s1",
    "UNIT_TEXT": "%",
    "OBSERVED": 100
  },
  {
    "RECORD_SMILES": "Cc1nc(N)ncc1-c1nc(N2CCOCC2)c2sc(C(C)(C)O)cc2n1",
    "UNIT_TEXT": "%",
    "OBSERVED": 100
  }
]
